Tested target: FXI
Assay details: Kd (SPR)
Quantity kind: Kd (nM)
Give the number; nM is assumed, so skip it.

# count of solved cases: 4
[[record]]
binder = "unnamed (protein) chain 1: EVQLLESGGGLVQPGGSLRLSCAASGFTFSSYAMDWVRQAPGKGLEWVSGISSDGGSTVYADSVKGRFTISRDNSKNTLYLQMNSLRAEDTAVYYCTRGGPYYYYAFDVWGQGTTVTVSS chain 2: DIQMTQSPSSLSASVGDRVTITCQASQDISNYLNWYQQKPGKAPKLLIYDASNLETGVPSRFSGSGSGTDFTFTISSLQPEDIATYYCQQADSFPVTFGGGTKVEIK"
unit_label = "nM"
measurement = 375

[[record]]
binder = "unnamed (protein) chain 1: EVQLLESGGGLVQPGGSLRLSCAASGFTFSQYGMDWVRQAPGKGLEWVSGIGPSGGSTVYADSVKGRFTISRDNSKNTLYLQMNSLRAEDTAVYYCTRDGPAYYYAFDIWGQGTTVTVSS chain 2: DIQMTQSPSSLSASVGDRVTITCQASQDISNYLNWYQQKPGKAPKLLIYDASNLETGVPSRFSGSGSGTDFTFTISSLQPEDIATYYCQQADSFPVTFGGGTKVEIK"
unit_label = "nM"
measurement = 109

[[record]]
binder = "unnamed (protein) chain 1: EVQLLESGGGLVQPGGSLRLSCAASGFTFSQYGMDWVRQAPGKGLEWVSGIGPSGGSTVYADSVKGRFTISRDNSKNTLYLQMNSLRAEDTAVYYCARGGPAWYYAFDVWGQGTTVTVSS chain 2: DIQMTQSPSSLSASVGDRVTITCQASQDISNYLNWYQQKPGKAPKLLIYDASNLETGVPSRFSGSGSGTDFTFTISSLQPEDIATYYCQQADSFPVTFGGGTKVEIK"
unit_label = "nM"
measurement = 204

[[record]]
binder = "unnamed (protein) chain 1: EVQLLESGGGLVQPGGSLRLSCAASGFTFSQYGMDWVRQAPGKGLEWVSGIGPSGGSTVYADSVKGRFTISRDNSKNTLYLQMNSLRAEDTAVYYCTRDGSAYYYAFDYWGQGTTVTVSS chain 2: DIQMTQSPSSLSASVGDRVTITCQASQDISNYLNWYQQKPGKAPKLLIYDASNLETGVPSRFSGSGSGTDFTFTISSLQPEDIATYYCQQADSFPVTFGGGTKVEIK"
unit_label = "nM"
measurement = 248


Kindly consider the entry below.
Query: Reported Kd, binder unnamed (protein) chain 1: EVQLLESGGGLVQPGGSLRLSCAASGFTFSQYGMDWVRQAPGKGLEWVSGIGPSGGSTVYADSVKGRFTISRDNSKNTLYLQMNSLRAEDTAVYYCARGGSAYYYAFDVWGQGTTVTVSS chain 2: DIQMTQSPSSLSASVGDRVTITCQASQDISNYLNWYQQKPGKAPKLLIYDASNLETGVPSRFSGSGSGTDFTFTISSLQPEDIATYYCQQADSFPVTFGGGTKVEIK : ____
Response: 822
